runDescription: Inhibition of VZV DNA polymerase extracted from baculovirus infected Sf21 cells using Heterodimeric nucleic acid as substrate preincubated with enzyme for 30 mins followed by substrate and dATP addition measured after 60 mins by biotinylated UTP incorporation based AlphaLISA assay
Set-up: species or system Human alphaherpesvirus 3
attributeMeasured: IC50 (µM)
Express the result in µM but write the number alone.

compound	assayResult
COc1cc(NC(=O)Cc2ccc(S(F)(F)(F)(F)F)cc2)ccc1C[C@H]1COC(=O)N1	2.22
Cc1nccn1Cc1ccc(NC(=O)Cc2ccc(Cl)cc2)cc1	34.8
N#CC1(c2ccc(NC(=O)Cc3ccc(Cl)cc3)cc2)CC1	2.7
COc1cc(NC(=O)Cc2ccc(Cl)cc2)ccc1C[C@H]1COC(=O)N1	0.017
O=C1N[C@@H](Cc2ccc3c(c2)OCC(Cc2ccc(Cl)cc2)N3)CO1 (stereo not given in full)	0.35
COc1nc(NC(=O)Cc2ccc(Cl)cc2)ccc1C[C@H]1COC(=O)N1	0.015
CN1C(=O)OC[C@@H]1Cc1ccc(NC(=O)Cc2ccc(Cl)cc2)cc1	1.84
CN(C(=O)Cc1ccc(Cl)cc1Cl)c1ccc(C[C@H]2COC(=O)N2)cc1	14.1

Any idea what its IC50 is? The compound is `N#CCc1ccc(NC(=O)Cc2ccc(Cl)cc2)cc1`
40.9

Next compound: `COc1cc(NC(=O)Cc2ccc(C(F)(F)F)cc2)ccc1C[C@H]1COC(=O)N1`
0.013

====

testedOn: Voltage-dependent L-type calcium channel subunit alpha-1C (Homo sapiens, UniProt Q13936)
Sequence (Q13936 whole entry): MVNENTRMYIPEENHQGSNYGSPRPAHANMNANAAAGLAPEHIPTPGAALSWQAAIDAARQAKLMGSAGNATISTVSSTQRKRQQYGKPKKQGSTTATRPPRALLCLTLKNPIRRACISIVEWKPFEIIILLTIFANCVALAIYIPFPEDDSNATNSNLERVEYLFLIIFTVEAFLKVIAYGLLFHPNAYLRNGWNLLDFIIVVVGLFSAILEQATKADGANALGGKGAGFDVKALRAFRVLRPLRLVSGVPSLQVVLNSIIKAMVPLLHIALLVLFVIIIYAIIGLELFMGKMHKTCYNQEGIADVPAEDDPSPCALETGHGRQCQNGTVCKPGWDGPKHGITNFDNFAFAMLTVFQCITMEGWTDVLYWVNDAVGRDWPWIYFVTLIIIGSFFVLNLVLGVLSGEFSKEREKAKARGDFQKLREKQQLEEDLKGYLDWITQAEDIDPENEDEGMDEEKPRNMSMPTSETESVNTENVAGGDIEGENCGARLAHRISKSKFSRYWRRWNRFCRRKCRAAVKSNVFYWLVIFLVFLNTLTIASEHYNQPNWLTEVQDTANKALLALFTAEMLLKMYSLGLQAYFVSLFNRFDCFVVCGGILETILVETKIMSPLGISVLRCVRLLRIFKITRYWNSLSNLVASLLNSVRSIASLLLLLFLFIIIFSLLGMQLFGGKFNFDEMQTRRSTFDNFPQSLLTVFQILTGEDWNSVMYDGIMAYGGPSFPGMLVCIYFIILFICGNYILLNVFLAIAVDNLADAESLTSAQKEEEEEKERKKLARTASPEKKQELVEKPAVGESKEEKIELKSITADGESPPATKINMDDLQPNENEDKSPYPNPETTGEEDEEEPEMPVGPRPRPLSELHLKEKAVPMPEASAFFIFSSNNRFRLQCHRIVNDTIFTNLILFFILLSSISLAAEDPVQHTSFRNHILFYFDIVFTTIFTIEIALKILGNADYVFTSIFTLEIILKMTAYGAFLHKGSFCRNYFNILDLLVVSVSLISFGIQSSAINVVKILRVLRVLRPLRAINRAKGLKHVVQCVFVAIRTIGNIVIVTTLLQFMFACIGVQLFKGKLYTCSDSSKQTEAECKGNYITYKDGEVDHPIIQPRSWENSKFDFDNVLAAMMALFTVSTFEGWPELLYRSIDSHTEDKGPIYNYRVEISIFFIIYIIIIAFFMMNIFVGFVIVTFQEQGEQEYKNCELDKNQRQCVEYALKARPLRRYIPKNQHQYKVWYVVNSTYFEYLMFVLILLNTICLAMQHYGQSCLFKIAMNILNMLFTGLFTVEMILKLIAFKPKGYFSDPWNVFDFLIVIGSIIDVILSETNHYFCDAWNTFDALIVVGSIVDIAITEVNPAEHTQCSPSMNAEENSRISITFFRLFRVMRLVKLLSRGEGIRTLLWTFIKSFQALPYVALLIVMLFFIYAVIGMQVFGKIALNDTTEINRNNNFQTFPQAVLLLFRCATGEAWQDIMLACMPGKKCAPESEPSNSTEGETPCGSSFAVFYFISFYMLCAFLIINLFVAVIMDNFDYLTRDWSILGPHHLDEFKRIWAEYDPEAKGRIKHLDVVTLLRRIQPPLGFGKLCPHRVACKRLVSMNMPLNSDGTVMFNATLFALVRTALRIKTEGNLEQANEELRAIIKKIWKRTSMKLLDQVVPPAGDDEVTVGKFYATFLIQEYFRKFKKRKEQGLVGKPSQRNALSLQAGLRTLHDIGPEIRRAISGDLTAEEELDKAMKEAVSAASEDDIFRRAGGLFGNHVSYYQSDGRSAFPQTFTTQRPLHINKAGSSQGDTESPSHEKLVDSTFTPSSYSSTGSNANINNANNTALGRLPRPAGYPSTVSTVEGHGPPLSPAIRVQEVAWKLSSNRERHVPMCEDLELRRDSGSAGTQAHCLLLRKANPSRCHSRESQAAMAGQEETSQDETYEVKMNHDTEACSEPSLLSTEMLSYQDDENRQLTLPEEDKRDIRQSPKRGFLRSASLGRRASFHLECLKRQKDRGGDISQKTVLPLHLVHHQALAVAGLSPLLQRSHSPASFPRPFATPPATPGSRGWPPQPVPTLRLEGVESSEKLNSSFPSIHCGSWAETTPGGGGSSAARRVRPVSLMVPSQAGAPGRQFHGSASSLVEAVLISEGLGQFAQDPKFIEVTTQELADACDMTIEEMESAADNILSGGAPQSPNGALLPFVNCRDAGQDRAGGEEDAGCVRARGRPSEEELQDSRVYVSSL
runDescription: Inhibition of Cav1.2 (unknown origin)
The label 1.0 is reserved for IC50 strictly under 10 µM; 0.0 covers values equal to or above it.

Would you please look over these solved cases?
COc1cc(NC(=O)Cc2ccc(Br)cc2)ccc1C[C@H]1COC(=O)N1 0.0
COc1cc(NC(=O)Cc2ccc(Cl)cc2)ccc1C[C@H]1COC(=O)N1 0.0
COc1cc(NC(=O)Cc2ccc(Cl)cc2Cl)ccc1C[C@H]1COC(=O)N1 1.0
COc1nc(NC(=O)Cc2ccc(Cl)cc2)ccc1C[C@H]1COC(=O)N1 0.0

Confirm or reject: IC50 of `COc1cc(NC(=O)Cc2ccc(C(F)(F)F)cc2)ccc1C[C@H]1COC(=O)N1` lies strictly below 10 µM
1.0

====

runDescription: Inhibition of VZV DNA polymerase extracted from baculovirus infected Sf21 cells using Heterodimeric nucleic acid as substrate preincubated with enzyme for 30 mins followed by substrate and dATP addition measured after 60 mins by biotinylated UTP incorporation based AlphaLISA assay
Design: species or system Human alphaherpesvirus 3
The label class 1 is reserved for IC50 strictly under 200 nM; class 0 covers values equal to or above it.

Would you please look over these solved cases?
O=C(Cc1ccc(Cl)cc1)Nc1ccc(C(=O)c2ccccc2)cc1 class 0
O=C(Nc1ccc(Cl)cc1)Nc1ccc(C[C@H]2COC(=O)N2)cc1 class 0
COc1cc(NC(=O)Cc2ccc(F)c(Cl)c2)ccc1C[C@H]1COC(=O)N1 class 0
O=C(Cc1ccc([N+](=O)[O-])cc1)Nc1ccc(C[C@H]2COC(=O)N2)cc1 class 1

Let us examine a further case.
Confirm or reject: IC50 of `COc1cc(NC(=O)Cc2ccc(Cl)cc2F)ccc1C[C@H]1COC(=O)N1` lies strictly below 200 nM
class 1

====

runDescription: MRT in Wistar rat at 3 mg/kg,iv or 10 mg/kg,po administration
Format: ADME, organism-based
conditionSet: in vivo
Each item that follows carries a reported MRT.
Express the result in min but write the number alone.

Any idea what its MRT is? The compound is `COc1cc(NC(=O)Cc2ccc(Cl)cc2)ccc1C[C@H]1COC(=O)N1`
42

Next compound: `COc1nc(NC(=O)Cc2ccc(Cl)cc2)ccc1C[C@H]1COC(=O)N1`
36

Sourced from ChEMBL document CHEMBL5579865
